Voltage-gated inwardly rectifying potassium channel KCNH2 (Homo sapiens, UniProt Q12809) data, read-out pIC50
Sequence (Q12809 whole entry): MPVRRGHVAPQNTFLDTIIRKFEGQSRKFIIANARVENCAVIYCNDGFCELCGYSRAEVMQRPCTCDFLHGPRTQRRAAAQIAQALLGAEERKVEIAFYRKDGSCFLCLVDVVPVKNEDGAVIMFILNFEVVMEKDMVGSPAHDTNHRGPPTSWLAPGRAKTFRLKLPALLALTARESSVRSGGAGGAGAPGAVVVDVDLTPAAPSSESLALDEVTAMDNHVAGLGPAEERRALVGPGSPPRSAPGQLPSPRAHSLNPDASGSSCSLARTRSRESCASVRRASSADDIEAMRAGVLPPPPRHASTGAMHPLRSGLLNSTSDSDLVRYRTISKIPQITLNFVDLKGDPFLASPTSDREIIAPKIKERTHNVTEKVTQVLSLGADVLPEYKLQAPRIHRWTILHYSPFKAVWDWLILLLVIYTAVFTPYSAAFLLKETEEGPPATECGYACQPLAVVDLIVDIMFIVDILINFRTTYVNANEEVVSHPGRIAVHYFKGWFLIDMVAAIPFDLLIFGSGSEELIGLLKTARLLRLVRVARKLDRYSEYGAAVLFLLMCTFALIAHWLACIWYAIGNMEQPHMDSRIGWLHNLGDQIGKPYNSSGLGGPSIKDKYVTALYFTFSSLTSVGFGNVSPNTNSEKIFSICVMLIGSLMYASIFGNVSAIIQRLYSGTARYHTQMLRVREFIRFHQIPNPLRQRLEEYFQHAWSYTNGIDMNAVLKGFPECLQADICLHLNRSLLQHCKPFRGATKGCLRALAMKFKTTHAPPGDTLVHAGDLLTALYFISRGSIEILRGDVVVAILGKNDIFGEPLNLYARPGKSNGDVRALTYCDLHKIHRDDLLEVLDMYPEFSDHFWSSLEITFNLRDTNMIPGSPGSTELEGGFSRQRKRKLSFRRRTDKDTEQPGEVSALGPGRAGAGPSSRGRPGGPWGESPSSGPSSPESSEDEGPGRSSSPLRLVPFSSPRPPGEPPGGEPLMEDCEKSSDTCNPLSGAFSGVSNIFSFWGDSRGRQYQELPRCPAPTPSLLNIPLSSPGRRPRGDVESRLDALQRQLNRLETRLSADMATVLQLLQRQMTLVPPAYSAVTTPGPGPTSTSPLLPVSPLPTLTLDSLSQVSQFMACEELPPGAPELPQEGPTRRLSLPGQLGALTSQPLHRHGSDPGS
Conceptually, pIC50 converts a concentration in mol/L into minus its log10.

O=C(Oc1ccc(OCc2ccccc2)cc1)N(Cc1ccccc1)S(=O)(=O)c1ccc(Cl)cc1	5.28

Shift focus to the following entry.
Summary line: "O=C(Oc1ccc(OCc2ccccc2)cc1)N(Nc1ccccc1)S(=O)(=O)c1ccc(Cl)cc1" , Voltage-gated inwardly rectifying potassium channel KCNH2 (Homo sapiens, UniProt Q12809), reported pIC50 = 5.02

* * *

TESTED_TARGET: Prostaglandin E synthase (Homo sapiens)
Sequence (O14684 whole entry): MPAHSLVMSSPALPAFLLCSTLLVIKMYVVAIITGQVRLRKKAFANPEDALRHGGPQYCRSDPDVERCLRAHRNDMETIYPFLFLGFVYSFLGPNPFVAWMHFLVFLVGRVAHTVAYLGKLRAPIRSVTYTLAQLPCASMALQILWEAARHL
PROTOCOL_DESCRIPTION: Inhibition of mPGES-1 activity in IL-1beta stimulated human A549 cells microsomes assessed as reduction in PGE2 production preincubated for 15 mins followed by PGH2 addition and measured after 1 mins by EIA
Set-up: species or system Microsome
PROPERTY_MEASURED: IC50 (nM)
Provide the reading as a plain figure in nM.

O=C(Nc1ccc(OCCCCc2ccccc2)cc1)N(Cc1ccccc1)S(=O)(=O)c1ccc(Cl)cc1	490

Form: compound = "O=C(Oc1ccc(OCc2ccccc2)cc1)N(Nc1ccccc1)S(=O)(=O)c1ccc(Cl)cc1" ; IC50 = 610

* * *

PROTOCOL_DESCRIPTION: Metabolic stability in mouse liver microsomes assessed as parent compound remaining at 1 uM incubated for 30 mins in presence of NADPH by LC-MS/MS analysis
Format: ADME, Microsome
EXPERIMENTAL_SETUP: read-out: Stabilty
PROPERTY_MEASURED: remaining at 0.5 h, 1 µM
Kindly write the number and append the unit.

Here's what some known entries look like.
O=C(Nc1ccc(OCCCCc2ccccc2)cc1)N(Cc1ccccc1)S(=O)(=O)c1ccc(Cl)cc1	79%
O=C(Oc1ccc(OCc2ccccc2)cc1)N(Cc1ccccc1)S(=O)(=O)c1ccc(Cl)cc1	53.4%

Shift focus to the following entry.
Form: molecule = "O=C(Oc1ccc(OCc2ccccc2)cc1)N(Nc1ccccc1)S(=O)(=O)c1ccc(Cl)cc1" ; remaining at 0.5 h, 1 µM = 42.2%

* * *

Examples of compounds with documented activity at 20 min, 10 µM follow.
TESTED_TARGET: CYP2D6 (Homo sapiens, UniProt P10635)
Sequence (P10635 whole entry): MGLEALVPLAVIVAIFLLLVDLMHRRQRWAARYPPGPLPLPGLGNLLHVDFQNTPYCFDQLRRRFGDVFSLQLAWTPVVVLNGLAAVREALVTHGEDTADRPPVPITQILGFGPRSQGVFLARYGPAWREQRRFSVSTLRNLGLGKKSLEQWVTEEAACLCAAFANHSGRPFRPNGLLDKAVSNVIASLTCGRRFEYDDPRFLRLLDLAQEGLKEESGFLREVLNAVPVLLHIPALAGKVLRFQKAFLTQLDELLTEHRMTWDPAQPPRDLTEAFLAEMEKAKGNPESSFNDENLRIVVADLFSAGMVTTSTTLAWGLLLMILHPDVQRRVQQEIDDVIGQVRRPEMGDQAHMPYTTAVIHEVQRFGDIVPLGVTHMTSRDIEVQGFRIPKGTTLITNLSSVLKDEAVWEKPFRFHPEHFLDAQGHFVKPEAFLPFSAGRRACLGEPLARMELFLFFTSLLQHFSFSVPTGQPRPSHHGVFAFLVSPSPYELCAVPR
PROTOCOL_DESCRIPTION: Inhibition of CYP2D6 in human liver microsomes assessed as enzyme remaining activity at 10 uM using bufuralol as substrate incubated for 20 mins in presence of NADPH by LC-MS/MS analysis relative to control
Type: ADME
EXPERIMENTAL_SETUP: probe bufuralol, read-out: Activity

Here's what some known entries look like.
O=C(Oc1ccc(OCc2ccccc2)cc1)N(Nc1ccccc1)S(=O)(=O)c1ccc(Cl)cc1	57.1%
O=C(Oc1ccc(OCc2ccccc2)cc1)N(Cc1ccccc1)S(=O)(=O)c1ccc(Cl)cc1	> 100%

Shift focus to the following entry.
Form: compound = "O=C(Nc1ccc(OCCCCc2ccccc2)cc1)N(Cc1ccccc1)S(=O)(=O)c1ccc(Cl)cc1" ; activity at 20 min, 10 µM = 98.8%

* * *

Examples of compounds with documented remaining at 0.5 h, 1 µM follow.
PROTOCOL_DESCRIPTION: Metabolic stability in dog liver microsomes assessed as parent compound remaining at 1 uM incubated for 30 mins in presence of NADPH by LC-MS/MS analysis
Type: ADME, Canis lupus familiaris, Microsome
EXPERIMENTAL_SETUP: read-out: Stabilty
Provide the reading as a plain figure in %.

Here's what some known entries look like.
O=C(Oc1ccc(OCc2ccccc2)cc1)N(Nc1ccccc1)S(=O)(=O)c1ccc(Cl)cc1	48.5
O=C(Oc1ccc(OCc2ccccc2)cc1)N(Cc1ccccc1)S(=O)(=O)c1ccc(Cl)cc1	37.7

Shift focus to the following entry.
Form: compound = "O=C(Nc1ccc(OCCCCc2ccccc2)cc1)N(Cc1ccccc1)S(=O)(=O)c1ccc(Cl)cc1" ; remaining at 0.5 h, 1 µM = 86.4
